# Test system: S. epidermidis ATCC 12228
# Assay type: cell-based, Staphylococcus epidermidis
No end group written: not given here.
Measured MIC of individual entries
measurement_label: MIC (µM)

                 substance  endpoint_result
0  IHKFWRPGRWFKHI-NH2 [PP]               16
1  IHKFWRGGRWFKHI-NH2 [GG]               32
2    IHKFWRRWFKHI-NH2 [Qa]               16
3   IHFKWRRWKFHI-NH2 [Qna]               32

* * *

# Tested on: E. coli UB1005
# Assay type: cell-based, Escherichia coli
No end group written: not given here.
measurement_label: MIC (µM)

>>> print(df.to_string())
                 substance  endpoint_result
0    IHKFWRRWFKHI-NH2 [Qa]                8
1  IHKFWRGGRWFKHI-NH2 [GG]                8
2  IHKFWRPGRWFKHI-NH2 [PP]                4
3   IHFKWRRWKFHI-NH2 [Qna]               16
